Catalogue of Ki values
Target: GST-Bcl-2 (Homo sapiens (Human))
Assay: Time Resolved-Fluorescence Resonance Energy Transfer (TR-FRET) Bcl-2 binding assay
Details: GST-Bcl-2 1 nM, F-Bak peptide probe 100 nM, Tb-anti-GST antibody 1 nM; Ki by Wang's equation
API: value field is a number in nM; no unit string.

STRUCTURE_AS_SMILES | STUDY_SYSTEM | PROPERTY_NAME | RESULT
CN1CCN(Nc2ccc(S(=O)(=O)NC(=O)c3ccc(N4CCN(CC5=C(c6ccc(Cl)cc6)CC(C)(C)CC5)CC4)cc3Oc3cc4cc[nH]c4c(F)c3F)cc2[N+](=O)[O-])CC1 | GST-Bcl-2 (Homo sapiens (Human)) | Ki | 0.127
O=C(NS(=O)(=O)c1ccc(NCC2CCOCC2)c([N+](=O)[O-])c1)c1ccc(N2CCN(Cc3ccccc3-c3ccc(Cl)cc3)CC2)cc1Oc1cccc(OCc2ccccc2)c1 | GST-Bcl-2 (Homo sapiens (Human)) | Ki | 31.6
O=C(NS(=O)(=O)c1ccc(NCCCN2CCOCC2)c([N+](=O)[O-])c1)c1ccc(N2CCN(Cc3ccccc3-c3ccc(Cl)cc3)CC2)cc1Oc1ccc(Cl)cc1 | GST-Bcl-2 (Homo sapiens (Human)) | Ki | 1.62

// below: Ki requested for another molecule
Tell me its Ki given "CN1CCC(Nc2ccc(S(=O)(=O)NC(=O)c3ccc(N4CCN(CC5=C(c6ccc(Cl)cc6)CC(C)(C)CC5)CC4)cc3Oc3cccc(O)c3)cc2[N+](=O)[O-])CC1" as the entry.
0.24

====

Biological target: GST-Bcl-2 (Homo sapiens (Human), UniProt P10415)
Sequence (P10415 whole entry): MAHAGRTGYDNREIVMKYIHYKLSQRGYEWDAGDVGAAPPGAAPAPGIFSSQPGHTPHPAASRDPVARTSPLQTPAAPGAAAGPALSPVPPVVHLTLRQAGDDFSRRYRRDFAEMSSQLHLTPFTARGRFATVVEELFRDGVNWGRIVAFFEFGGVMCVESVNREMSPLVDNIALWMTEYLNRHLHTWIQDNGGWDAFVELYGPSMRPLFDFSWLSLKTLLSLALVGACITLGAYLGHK
Experiment: Time Resolved-Fluorescence Resonance Energy Transfer (TR-FRET) Bcl-2 binding assay
Settings: GST-Bcl-2 1 nM, F-Bak peptide probe 100 nM, Tb-anti-GST antibody 1 nM; Ki by Wang's equation
Recorded Ki, one value per entry.
Your answer should be a plain number; it is taken to be in pM.

Worked cases, answers included:
STRUCTURE_AS_SMILES | RESULT_UNIT | Ki
CN1CCC(Nc2ccc(S(=O)(=O)NC(=O)c3ccc(N4CCN(CC5=C(c6ccc(Cl)cc6)CC(C)(C)OC5)CC4)cc3Oc3ccccc3Cl)cc2[N+](=O)[O-])CC1 | pM | 13
CC1(C)CC(c2ccc(Cl)cc2)=C(CN2CCN(c3ccc(C(=O)NS(=O)(=O)c4ccc(NCC5CCOCC5)c([N+](=O)[O-])c4)c(Oc4cc5cc[nH]c5cc4F)c3)CC2)CO1 | pM | 17

Consider the additional compound presented here.
Give the value of Ki reported for the following: "CC1(C)CCC(CN2CCN(c3ccc(C(=O)NS(=O)(=O)c4ccc(NC5CCN(CCF)CC5)c([N+](=O)[O-])c4)c(Oc4cccc(F)c4F)c3)CC2)=C(c2ccc(Cl)cc2)C1"
223

====

Biological target: GST-Bcl-2 (Homo sapiens (Human), UniProt P10415)
Experiment: Time Resolved-Fluorescence Resonance Energy Transfer (TR-FRET) Bcl-2 binding assay
Details: GST-Bcl-2 1 nM, F-Bak peptide probe 100 nM, Tb-anti-GST antibody 1 nM; Ki by Wang's equation
PROPERTY_NAME: pKi
Scale note: pKi = -log10(concentration in M).

Observe how each entry below is paired with its result.
COMPOUND | pKi
O=C(NS(=O)(=O)c1ccc(NCCCN2CCOCC2)c([N+](=O)[O-])c1)c1ccc(N2CCN(Cc3ccccc3-c3ccc(Cl)cc3)CC2)cc1Oc1cccc(N2CCOCC2)c1 | 8.08
CC1(C)CCC(CN2CCN(c3ccc(C(=O)NS(=O)(=O)c4ccc(N[C@@H]5CCN(C(CF)CF)C5)c([N+](=O)[O-])c4)c(Oc4cnc(N)c(Cl)c4)c3)CC2)=C(c2ccc(Cl)cc2)C1 | 10.74
Cn1ccc2c(Oc3cc(N4CCN(Cc5ccccc5-c5ccc(Cl)cc5)CC4)ccc3C(=O)NS(=O)(=O)c3ccc(NCCCN4CCOCC4)c([N+](=O)[O-])c3)cccc21 | 8.23

Report measured pKi; entry is CC1(C)CCC(CN2CCN(c3ccc(C(=O)NS(=O)(=O)c4ccc(NCC5COCCO5)c([N+](=O)[O-])c4)c(Oc4cc5cc[nH]c5cc4F)c3)CC2)=C(c2ccc(Cl)cc2)C1 (centres unmarked)
9.72
